target: BRG-1 (Homo sapiens, UniProt P51532); assay: ATPase catalytic activity assay (ADP-Glo), BRG-1; settings: 1 h, read-out: BRG1 Max % Inhibition, ADP-Glo, 30 nM BRG-1, 400 μM ATP
Sequence (P51532 whole entry): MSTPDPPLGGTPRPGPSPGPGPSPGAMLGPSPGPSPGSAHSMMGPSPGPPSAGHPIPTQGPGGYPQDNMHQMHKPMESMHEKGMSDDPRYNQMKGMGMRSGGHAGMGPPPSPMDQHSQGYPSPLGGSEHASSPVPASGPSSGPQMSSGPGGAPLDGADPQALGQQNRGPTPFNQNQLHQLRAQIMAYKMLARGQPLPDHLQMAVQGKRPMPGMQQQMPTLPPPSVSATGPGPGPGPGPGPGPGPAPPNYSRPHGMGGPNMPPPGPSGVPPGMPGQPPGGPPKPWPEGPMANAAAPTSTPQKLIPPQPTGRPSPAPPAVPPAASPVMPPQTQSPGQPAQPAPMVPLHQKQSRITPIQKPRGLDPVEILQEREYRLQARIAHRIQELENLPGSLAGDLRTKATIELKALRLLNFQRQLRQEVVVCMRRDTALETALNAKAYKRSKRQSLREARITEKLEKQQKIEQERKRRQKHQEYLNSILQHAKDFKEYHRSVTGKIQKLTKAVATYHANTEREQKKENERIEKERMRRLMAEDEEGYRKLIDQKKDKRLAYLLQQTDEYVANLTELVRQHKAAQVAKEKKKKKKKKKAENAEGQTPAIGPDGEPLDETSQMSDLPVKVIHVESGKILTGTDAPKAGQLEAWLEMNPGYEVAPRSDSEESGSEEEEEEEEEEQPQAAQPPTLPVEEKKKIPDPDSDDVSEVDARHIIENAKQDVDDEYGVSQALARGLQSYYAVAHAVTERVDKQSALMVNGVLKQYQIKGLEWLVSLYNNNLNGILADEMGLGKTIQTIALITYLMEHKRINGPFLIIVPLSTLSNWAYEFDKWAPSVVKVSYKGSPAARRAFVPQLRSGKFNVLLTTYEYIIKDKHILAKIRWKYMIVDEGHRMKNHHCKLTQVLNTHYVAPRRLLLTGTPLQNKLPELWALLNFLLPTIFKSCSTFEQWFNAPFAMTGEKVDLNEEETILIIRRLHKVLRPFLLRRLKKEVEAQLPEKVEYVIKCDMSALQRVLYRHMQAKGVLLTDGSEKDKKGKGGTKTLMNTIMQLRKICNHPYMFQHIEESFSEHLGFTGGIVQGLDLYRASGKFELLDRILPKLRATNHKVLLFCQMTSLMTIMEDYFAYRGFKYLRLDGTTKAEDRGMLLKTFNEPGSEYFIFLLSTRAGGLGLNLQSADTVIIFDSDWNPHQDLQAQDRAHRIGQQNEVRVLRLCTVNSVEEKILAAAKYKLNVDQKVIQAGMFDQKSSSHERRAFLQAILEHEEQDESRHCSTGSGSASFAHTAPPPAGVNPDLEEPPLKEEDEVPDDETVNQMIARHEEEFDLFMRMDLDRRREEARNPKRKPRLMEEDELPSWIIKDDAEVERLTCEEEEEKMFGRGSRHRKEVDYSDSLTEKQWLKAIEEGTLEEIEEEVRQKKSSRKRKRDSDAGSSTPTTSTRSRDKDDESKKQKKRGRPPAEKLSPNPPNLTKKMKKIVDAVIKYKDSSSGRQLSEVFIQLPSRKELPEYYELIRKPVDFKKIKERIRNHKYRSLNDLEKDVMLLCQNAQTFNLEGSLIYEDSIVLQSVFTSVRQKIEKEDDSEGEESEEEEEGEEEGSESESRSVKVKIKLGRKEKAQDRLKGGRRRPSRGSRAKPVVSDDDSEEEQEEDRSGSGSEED
Rule: Emax under 80% gives false (0), otherwise true (1).

Query: Is the recorded value of Emax equal to or greater than 80% for this molecule? `Cn1nc(-c2ccc3cnc(CNC(=O)c4ccc5c(c4)[C@](C)(C#N)COC5)cc3n2)cc1C(F)F`
Response: false (0)

Query: Is the recorded value of Emax equal to or greater than 80% for this molecule? `C[C@@H]1CN(c2cccc([C@H]3C[C@@H](c4ccnc(CNC(=O)c5ccc6c(c5)[C@](C)(C#N)COC6)c4)C3)n2)C[C@H](C)O1`
Response: false (0)

Query: Is the recorded value of Emax equal to or greater than 80% for this molecule? `Cn1cc2c(n1)CCN(c1ccc3cnc(CNC(=O)c4ccc5c(c4)[C@](C)(C#N)COC5)cc3n1)C2`
Response: false (0)

Query: Is the recorded value of Emax equal to or greater than 80% for this molecule? `COCCC(=O)N1CCN(c2cccc(-c3ccc4cnc(CNC(=O)c5ccc6c(c5)[C@](C)(C#N)COC6)cc4n3)n2)CC1`
Response: true (1)

Query: Is the recorded value of Emax equal to or greater than 80% for this molecule? `C[C@@]1(C#N)COCc2ccc(C(=O)NCc3cc4c(nn3)CCN(c3cccc(N5CCC5)n3)C4)cc21`
Response: false (0)

Query: Is the recorded value of Emax equal to or greater than 80% for this molecule? `C[C@@]1(C#N)COCc2ccc(C(=O)NCc3cc4nc(-c5cnn6ccccc56)ccc4cn3)cc21`
Response: false (0)

Query: Is the recorded value of Emax equal to or greater than 80% for this molecule? `C[C@@]1(C#N)COCc2c(F)cc(C(=O)NCc3cc4nc(-c5cncc(N6CCC6)n5)ccc4cn3)cc21`
Response: true (1)

Query: Is the recorded value of Emax equal to or greater than 80% for this molecule? `Cn1c(=O)ccc2ccc(-c3ccc4cnc(CNC(=O)c5ccc6c(c5)[C@](C)(C#N)COC6)cc4n3)nc21`
Response: true (1)
